- STUDY TARGET: rat NMB receptor (Rattus norvegicus)
- Construct: a full length NMB-preferring bombesin receptor clone generated from rat esophagus; expressed in transfected cells
- Sequence (P24053 1-390): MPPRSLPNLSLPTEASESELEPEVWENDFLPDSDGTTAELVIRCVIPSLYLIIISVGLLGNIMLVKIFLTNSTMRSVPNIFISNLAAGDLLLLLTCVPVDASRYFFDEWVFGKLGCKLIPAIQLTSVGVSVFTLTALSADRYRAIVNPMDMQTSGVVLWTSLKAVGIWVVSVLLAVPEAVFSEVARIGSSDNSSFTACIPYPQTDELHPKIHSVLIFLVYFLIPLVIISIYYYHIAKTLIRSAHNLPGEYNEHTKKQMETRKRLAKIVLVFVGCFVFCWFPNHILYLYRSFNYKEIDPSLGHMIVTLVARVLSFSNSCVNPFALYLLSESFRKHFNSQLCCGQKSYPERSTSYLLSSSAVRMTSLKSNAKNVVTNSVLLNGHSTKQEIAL
- ASSAY INFO: Binding of 125I-[D-Tyr0]NMB to NMB-R transfected BALB 3T3 cells
- MEASUREMENT SETUP: NMB-R transfected BALB 3T3 cells; Ki by Cheng method; read-out: Ki 125I-NMB Binding, NMB Receptor, Transfected Cells
Where a SMILES comes first, the peptide text is derived from it. Bridges are numbered along the chain shown (N, C = ends). [ ]: non-standard residue; d: D form. 2Nal = N[C@@H](Cc1ccc2ccccc2c1)C(=O)O; d2Nal = N[C@H](Cc1ccc2ccccc2c1)C(=O)O; Lys(iPr) = CC(C)NCCCC[C@H](N)C(=O)O
Record form. Attribute: pKi. Fill in for each entry.
In plain terms, pKi is the concentration in mol/L turned into minus its base-10 logarithm.

Inquiry: I am curious: what pKi value has been reported for CC(C)NCCCC[C@@H]1NC(=O)[C@@H](Cc2c[nH]c3ccccc23)NC(=O)[C@H](Cc2ccc(O)cc2)NC(=O)[C@@H](NC(=O)[C@H](N)Cc2ccccc2)CSSC[C@@H](C(=O)N[C@@H](Cc2ccc3ccccc3c2)C(N)=O)NC(=O)[C@H]([C@@H](C)O)NC1=O [Analog #15] (H-[dF]CY[dW][Lys(iPr)]TC[2Nal]-NH2; disulfide 2-7) ?
Reply text: 5.63

Inquiry: Quick one: pKi of CC(C)[C@@H]1NC(=O)[C@H](CCCCN)NC(=O)[C@@H](Cc2c[nH]c3ccccc23)NC(=O)[C@H](Cc2ccc(O)cc2)NC(=O)[C@@H](NC(=O)[C@H](N)Cc2ccc3ccccc3c2)CSSC[C@@H](C(=O)N[C@@H](Cc2ccc3ccccc3c2)C(N)=O)NC1=O [Analog #1] (H-[d2Nal]CY[dW]KVC[2Nal]-NH2; disulfide 2-7) ?
Reply text: 6.67

Inquiry: Which pKi reading was recorded for the compound CC(C)[C@@H]1NC(=O)[C@H](CCCCN)NC(=O)[C@@H](Cc2c[nH]c3ccccc23)NC(=O)[C@H](Cc2ccc(O)cc2)NC(=O)[C@H](NC(=O)[C@H](N)Cc2ccc3ccccc3c2)CSSC[C@@H](C(=O)N[C@@H](Cc2ccc3ccccc3c2)C(N)=O)NC1=O [Analog #10] (H-[d2Nal][dC]Y[dW]KVC[2Nal]-NH2; disulfide 2-7) ?
Reply text: 6.02
